Each recorded value in this set is attributed to ChEMBL document CHEMBL1201862.

system: SK-MEL-2; assay: NCI tumour cell line growth inhibition, 48 h
Active and inactive are the calls of the source. No stated cut-off is given here; in the data, active = GI50 up to about 1.1 µM and inactive = higher.

Molecule: CCOC(=O)C(C)(C)C(O)C(C)C (stereo not drawn)
GI50: > 100 µM (inactive)
//
Molecule: Cc1cc(Cc2c(C)c(C)c(Cc3cc(C)cc(C(C)(C)C)c3O)c(C)c2C)c(O)c(C(C)(C)C)c1
GI50: > 100 µM (inactive)
//
Molecule: CCCCCCCCCCCC(=O)OCC(O)CO (stereo not drawn) [GLYCEROL MONOLAURATE]
GI50: > 100 µM (inactive)
//
Molecule: O=c1[nH]nc(-c2ccccc2)n1/N=C/c1ccco1
GI50: > 100 µM (inactive)
//
Molecule: COc1ccc(C2=N/C(=C\c3ccccc3)C(=O)O2)cc1
GI50: > 100 µM (inactive)
//
Molecule: O=C1c2ccccc2C(=O)N1CCn1nc(-c2ccccc2)cc(-c2ccccc2)c1=O
GI50: 82 µM (inactive)
//
Molecule: Cc1cc2nc3c(N)nn(CCN(C)C)c3nc2cc1C
GI50: 39 µM (inactive)
//
Molecule: O=C(O)C1Cc2[nH]c3ccccc3c2C2CCCC12 (stereo not drawn)
GI50: > 100 µM (inactive)
//
Molecule: O=S1(=O)OCCOS(=O)(=O)C1C1c2ccccc2-c2ccccc21
GI50: 70.3 µM (inactive)
//
Molecule: CCCCCCCCCCCCCCCC(=O)OCC1OC(OC)C2NP(=O)(N(CCCl)CCCl)OC1C2O (stereo not drawn)
GI50: 8.3 µM (inactive)
//
Molecule: CCCCC#COS(=O)(=O)c1ccc(C)cc1
GI50: > 100 µM (inactive)
//
Molecule: Cc1noc2nnn(-c3ccc(Cl)cc3)c(=O)c12
GI50: 3.24 µM (inactive)
//
Molecule: CC(=O)O[C@H]1[C@@H](N2CCOCC2)C[C@H]2[C@@H]3CC=C4C[C@@H](N5CCCC5)CC[C@]4(C)[C@H]3CC[C@@]21C
GI50: > 100 µM (inactive)
//
Molecule: Cn1c(=O)cc(NNc2ccc(Cl)c(Cl)c2)[nH]c1=O
GI50: 16.4 µM (inactive)
//
Molecule: CNC(C)Cc1ccc(O)cc1 (stereo not drawn)
GI50: > 100 µM (inactive)
//
Molecule: O=C1C=C(Nc2ccccc2C(=O)CC(=O)C(=O)Nc2ccc(Cl)c(Cl)c2)c2ccccc2C1=O
GI50: 30.6 µM (inactive)
//
Molecule: CN(C)Cc1cc(/N=N/c2ccccc2)ccc1O
GI50: 38.9 µM (inactive)
//
Molecule: CC1(COS(=O)(=O)OCC2(C)COS(=O)(=O)OC2)COS(=O)(=O)OC1
GI50: > 55.6 µM (inactive)
//
Molecule: OC1CN2CCS[C@H]2C(O)C1O (stereo partly drawn)
GI50: > 100 µM (inactive)
//
Molecule: O=C1C=CC(O)(C#CCO)C=C1
GI50: 17.4 µM (inactive)
//
Molecule: NNC(=O)c1ccc(OCc2nc3ccccc3[nH]2)cc1
GI50: > 100 µM (inactive)
//
Molecule: COc1cccc(-c2nccc3c(OCc4ccccc4)c(OC)c(OC)cc23)c1
GI50: 30.1 µM (inactive)
//
Molecule: CC1(O)C(C)(O)C(C)(O)C1(C)O (stereo not drawn)
GI50: > 100 µM (inactive)

====

test system: NCI/ADR-RES; test: NCI tumour cell line growth inhibition, 48 h
Active and inactive are the calls of the source. Cut-off read from the data, not from the text of the source: active = GI50 up to about 1.1 µM and inactive = higher.
Labels: true (1) = active, false (0) = inactive

Molecule: CN(CCCNC(=O)c1nn(-c2ccccc2)c2c1ccc1ccccc12)CCCNC(=O)c1nn(-c2ccccc2)c2c1ccc1ccccc12
Target: NCI/ADR-RES
Label Value: false (0)
//
Molecule: CC(=O)O[C@H]1[C@@H](N2CCOCC2)C[C@H]2[C@@H]3CC=C4C[C@@H](N5CCCC5)CC[C@]4(C)[C@H]3CC[C@@]21C
Target: NCI/ADR-RES
Label Value: false (0)
//
Molecule: O=c1c2c(F)c(F)c(F)c(F)c2sc2nccn12
Target: NCI/ADR-RES
Label Value: false (0)
//
Molecule: O=C1Nc2ccccc2/C1=N/NC(=S)N1CCCC1
Target: NCI/ADR-RES
Label Value: true (1)
//
Molecule: Cn1nc(-c2ccc(S(=O)(=O)N/C(=N/c3ccc(Cl)cc3)NN)s2)cc1C(F)(F)F
Target: NCI/ADR-RES
Label Value: false (0)
//
Molecule: O=S1(=O)OCCOS(=O)(=O)C1C1c2ccccc2-c2ccccc21
Target: NCI/ADR-RES
Label Value: false (0)
//
Molecule: CCCCCC[C@H]1C(=O)O[C@H](C)[C@H](NC(=O)c2cccc(NC=O)c2OC)C(=O)O[C@@H](C)[C@@H]1OC(=O)C(C)CC.CCCCCC[C@H]1C(=O)O[C@H](C)[C@H](NC(=O)c2cccc(NC=O)c2OC)C(=O)O[C@@H](C)[C@@H]1OC(=O)CC(C)C (stereo partly drawn)
Target: NCI/ADR-RES
Label Value: false (0)
//
Molecule: O=c1[nH]nc(Cc2ccccc2)[nH]1
Target: NCI/ADR-RES
Label Value: false (0)
//
Molecule: COc1ccccc1N1CCN(CCCN2C(C(=O)c3ccccc3)=C(O)c3c(C)cc(C)nc3S2(=O)=O)CC1
Target: NCI/ADR-RES
Label Value: false (0)
//
Molecule: Cc1cn(CCC(N)C(=O)O)c(=O)[nH]c1=O (stereo not drawn)
Target: NCI/ADR-RES
Label Value: false (0)
//
Molecule: COc1cc(/C=N/N=C(\N)NO)cc(OC)c1OC
Target: NCI/ADR-RES
Label Value: false (0)
//
Molecule: CN(Cc1cnc2nc(N)nc(N)c2n1)c1ccc(C(=O)NC(CCC(=O)NCCC(P(=O)(O)O)P(=O)(O)O)C(=O)O)cc1 (stereo not drawn)
Target: NCI/ADR-RES
Label Value: false (0)
//
Molecule: NNC1=Nc2ccc(Cl)cc2C(=S)N2CSCC12 (stereo not drawn)
Target: NCI/ADR-RES
Label Value: false (0)

====

system: SR; assay: NCI tumour cell line growth inhibition, 48 h
The source made the active and inactive calls. No stated cut-off is given here; in the data, active = GI50 up to about 1.1 µM and inactive = higher. Square brackets hold non-standard residues; d marks the D form. Peptide text beside a SMILES is read from it. * marks the point of attachment. ξ: configuration not given here. NMeN = CN[C@@H](CC(N)=O)C(=O)O; NMeV = CN[C@H](C(=O)O)C(C)C; ξNMeV = CNC(C(=O)O)C(C)C; Boc = CC(C)(C)OC(=O)*; ξNMeA = CNC(C)C(=O)O
Observed Property: GI50

Molecule: Oc1cc(-c2c[nH]c3ccccc23)nc2cc3c(cc12)OCO3
Target: SR
Experimental Value: > 100 µM (inactive)
--
Molecule: CCCCCCCCCCCC(=O)OCC1OC(n2cc(F)c(=O)[nH]c2=O)C(N)C(O)C1O (centres undefined)
Target: SR
Experimental Value: 81.7 µM (inactive)
--
Molecule: COc1ccc(C2=C(OC(=O)N(C)C)c3cccn3-c3cc(Cl)ccc3S2)cc1
Target: SR
Experimental Value: 6.38 µM (inactive)
--
Molecule: Cn1nc(-c2ccc(S(=O)(=O)N/C(=N/c3ccc(Cl)cc3)NN)s2)cc1C(F)(F)F
Target: SR
Experimental Value: 17.4 µM (inactive)
--
Molecule: COc1cc(C(C)c2cc3c(cc2OCCCCOc2cc4c(cc2C(C)c2cc(OC)c(OC)c(OC)c2)OCO4)OCO3)cc(OC)c1OC (centres undefined)
Target: SR
Experimental Value: 10.2 µM (inactive)
--
Molecule: COC(=O)C(C)N(C)C(=O)[C@H](CC(N)=O)N(C)C(=O)[C@@H]1CCCN1C(=O)[C@H](C(C)C)N(C)C(=O)C(C(C)C)N(C)C(=O)[C@@H](NC(=O)OC(C)(C)C)C(C)C (some centres undefined) (Boc-V[ξNMeV][NMeV]P[NMeN][ξNMeA]-OMe)
Target: SR
Experimental Value: > 100 µM (inactive)
--
Molecule: COc1cc2c(c(O)c1OC)-c1c(cc(OC)c(OC)c1OC)CC(C)C(C)C2 (centres undefined) [GOMISIN K3]
Target: SR
Experimental Value: 31.3 µM (inactive)
--
Molecule: O=c1[nH]nc(-c2ccccc2)n1/N=C/c1ccco1
Target: SR
Experimental Value: > 100 µM (inactive)
--
Molecule: Cc1cn(C2CC(N(O)Cc3ccccc3)C(CO[Si](C)(C)C(C)(C)C)O2)c(=O)[nH]c1=O (centres undefined)
Target: SR
Experimental Value: 31.6 µM (inactive)

====

Readings of GI50 for the listed molecules
system: NCI-H522; experiment: NCI tumour cell line growth inhibition, 48 h
Activity calls are given as the source filed them. No stated cut-off is given here; in the data, active = GI50 up to about 1.1 µM and inactive = higher.

Molecule: CCOC(=O)C1=C(C)N(NC(=O)c2ccccc2)C2(O)CCCC12C(=O)OCC (configuration not stated)
GI50: > 100 µM (inactive)

Molecule: CCOc1ccc(NC(=O)/C(=C\c2ccc(C)cc2)C(C)=O)cc1
GI50: > 100 µM (inactive)

Molecule: C=C(C)C(=O)OC1C(C(C)CCCO)=C(CO)CC2OC(=O)C(=C)C21 (configuration not stated)
GI50: 3.44 µM (inactive)

Molecule: N=C1N(c2ccccc2)C(=S)/C(=N/c2ccccc2)N1c1ccccc1
GI50: 2.81 µM (inactive)

Molecule: O=c1ccn(C2(CO)C=C(CO)C(O)C2O)c(=O)[nH]1 (configuration not stated)
GI50: > 25.7 µM (inactive)

Molecule: CCOC(=O)c1cnc2oc(-c3ccc(OC)cc3)nn2c1=O
GI50: 79.1 µM (inactive)

Molecule: c1cc2c(cnc3cscc32)s1
GI50: > 100 µM (inactive)

Molecule: O=c1[nH]nc(Cc2ccccc2)[nH]1
GI50: > 100 µM (inactive)

Molecule: C=C(CCCCCCCCC)CC(=O)SCCNC(=O)CCNC(=O)C(O)C(C)(C)COP(=O)(O)OP(=O)(O)OCC1OC(n2cnc3c(N)ncnc32)C(O)C1OP(=O)(O)O (configuration not stated)
GI50: 11.8 µM (inactive)

Molecule: CCCCCCCCCCCCCCCCCCOP(=O)([O-])OC1CC[N+](C)(C)CC1 [PERIFOSINE]
GI50: 2.97 µM (inactive)

Molecule: CC1=C(C(=O)Nc2ccc([N+](=O)[O-])cc2)C(c2cccc([N+](=O)[O-])c2)C(C(=O)Nc2ccc([N+](=O)[O-])cc2)=C(C)N1
GI50: 20.5 µM (inactive)

Molecule: CCC(C)NC1=NCC(C)S1 (configuration not stated)
GI50: > 100 µM (inactive)

Molecule: COC1=CC23C=CC1[C@@H](c1ccccc1)C2=C(C)C(=O)N3C(=O)NC1CCCCC1 (some centres not stated)
GI50: 18.9 µM (inactive)

Molecule: NC(=O)N/N=C(\C(=O)C(=O)Nc1ccc(Cl)c(C(F)(F)F)c1)c1nc2ccc(C(=O)c3ccccc3)cc2nc1O
GI50: 46.6 µM (inactive)

Molecule: C/C(=C\c1ccccc1)C(O)C(=O)c1nc2ccc(Cl)cc2nc1O (configuration not stated)
GI50: 52 µM (inactive)

Molecule: C=C1C(=O)OCC2C(C(=O)O)=CC3C(C)C(C)=CC123 (configuration not stated)
GI50: 2.31 µM (inactive)

Molecule: CO/C(=N\N=C(/c1ccccc1)C(F)(F)F)c1ccncc1
GI50: 26.6 µM (inactive)

Molecule: O=C(/C=C/c1ccccc1O)c1cccs1
GI50: > 100 µM (inactive)

Molecule: O=C(CC(=O)N1N=C(N2CCCCC2)CC1c1ccccc1)Nc1ccc(Cl)cc1 (configuration not stated)
GI50: > 100 µM (inactive)

Molecule: COC(=O)c1c(C)[nH]c2c1cc(O)c1nc(C)c(C)nc12
GI50: 74.8 µM (inactive)

Molecule: COc1cccc(-c2nccc3c(OCc4ccccc4)c(OC)c(OC)cc23)c1
GI50: > 100 µM (inactive)

Molecule: Cc1ccc(Nc2nc(=S)[nH]c3[nH]ncc23)cc1
GI50: 32.2 µM (inactive)
